# target.of.assay: Human STING (Homo sapiens, UniProt Q86WV6, G230A/H232R/R293Q/R71H)
# Sequence (Q86WV6 whole entry R71H/G230A/H232R/R293Q): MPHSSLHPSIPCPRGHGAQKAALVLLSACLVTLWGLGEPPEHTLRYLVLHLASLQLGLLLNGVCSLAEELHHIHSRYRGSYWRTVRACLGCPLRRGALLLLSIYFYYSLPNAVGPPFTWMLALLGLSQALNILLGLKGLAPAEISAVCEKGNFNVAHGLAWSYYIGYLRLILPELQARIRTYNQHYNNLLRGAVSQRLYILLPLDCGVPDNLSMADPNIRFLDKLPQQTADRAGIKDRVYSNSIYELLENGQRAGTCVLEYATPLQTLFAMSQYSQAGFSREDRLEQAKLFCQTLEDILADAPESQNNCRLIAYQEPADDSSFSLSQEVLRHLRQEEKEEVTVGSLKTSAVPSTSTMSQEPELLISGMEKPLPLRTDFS
# run.description: Activation of human STING signaling in permeabilized THP1 cells, IRF3 induction
# assay.setup: THP1-Dual cells permeabilized with digitonin buffer 30 minutes on ice, then 24 h in RPMI media
# Experimental: To evaluate IRF3 reporter levels, cell culture supernatant (20 μl) from each incubated sample was added to QUANTI-Luc™ assay solution (Invivogen, 50 μl), and the luminescence was measured with a SpectraMax M3 spectrophotometer (Molecular Devices). […]
pEC50: −log10 of the molar value.
// reported pEC50 for each item listed
recorded.metric: pEC50

[
  {
    "molecule.smiles": "CCc1nc(C)oc1C(=O)Nc1nc2cc(C(N)=O)cc(OC)c2n1C/C=C/Cn1c(NC(=O)c2oc(C)nc2CC)nc2cc(C(N)=O)cc(OCCCN)c21",
    "recorded.metric": "pEC50",
    "value.reported": "> 6.00"
  },
  {
    "molecule.smiles": "CCn1nc(C)cc1C(=O)Nc1nc2cc(CN)cnc2n1C/C=C/Cn1c(NC(=O)c2cc(C)nn2CC)nc2cc(C(N)=O)cc(OC)c21",
    "recorded.metric": "pEC50",
    "value.reported": "4.30 to 6.00"
  },
  {
    "molecule.smiles": "Cn1nncc1C(=O)Nc1nc2cc(C(N)=O)ccc2n1C/C=C/Cn1c(NC(=O)c2cnnn2C)nc2cc(C(N)=O)cc(OCCCO)c21",
    "recorded.metric": "pEC50",
    "value.reported": "≤ 4.30"
  },
  {
    "molecule.smiles": "CCn1nc(C)cc1C(=O)Nc1nc2cc(N)cnc2n1C/C=C/Cn1c(NC(=O)c2cc(C)nn2CC)nc2cc(C(N)=O)cc(OC)c21",
    "recorded.metric": "pEC50",
    "value.reported": "> 6.00"
  },
  {
    "molecule.smiles": "COc1cc(C(N)=O)cc2nc(NC(=O)c3cnc(C)n3C)n(C/C=C/Cn3c(NC(=O)c4cnc(C)n4C)nc4cc(C(N)=O)cc(OCCCO)c43)c12",
    "recorded.metric": "pEC50",
    "value.reported": "≤ 4.30"
  },
  {
    "molecule.smiles": "CCc1nc(C)oc1C(=O)Nc1nc2cc(C(N)=O)cc(OCCCO)c2n1C/C=C/Cn1c(NC(=O)c2cc(C)nn2CC)nc2cc(C(N)=O)cc(OC)c21",
    "recorded.metric": "pEC50",
    "value.reported": "> 6.00"
  },
  {
    "molecule.smiles": "CCc1nc(C)oc1C(=O)Nc1nc2cc(C(N)=O)cc(OCCCO)c2n1C/C=C/Cn1/c(=N/C(=O)c2sc(C)nc2CC)sc2cc(C(N)=O)cc(OC)c21",
    "recorded.metric": "pEC50",
    "value.reported": "> 6.00"
  }
]

----------
Entries and their EC50 values follow.
# target.of.assay: R232H human STING variant (Homo sapiens, UniProt Q86WV6)
# Sequence (Q86WV6 whole entry, stated change not applied): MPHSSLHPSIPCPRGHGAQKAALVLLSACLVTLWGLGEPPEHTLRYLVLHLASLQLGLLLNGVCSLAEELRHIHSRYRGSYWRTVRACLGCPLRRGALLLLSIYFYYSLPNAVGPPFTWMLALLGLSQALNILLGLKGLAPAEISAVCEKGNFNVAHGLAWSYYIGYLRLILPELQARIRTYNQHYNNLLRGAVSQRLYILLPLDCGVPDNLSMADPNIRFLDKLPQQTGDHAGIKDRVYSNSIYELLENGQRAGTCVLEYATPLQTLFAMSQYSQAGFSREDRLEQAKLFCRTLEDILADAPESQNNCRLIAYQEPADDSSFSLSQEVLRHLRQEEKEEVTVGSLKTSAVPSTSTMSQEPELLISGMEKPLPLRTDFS
# run.description: IRF3 reporter induction in THP1-Dual KI-hSTING-H232 Cells
# assay.setup: THP1-Dual KI-hSTING-H232 Cells (R232H Haplotype)

[
  {
    "compound": "CCc1nc(C)oc1C(=O)/N=c1\\sc2cc(C(N)=O)cc(OCCCO)c2n1C/C=C/Cn1c(NC(=O)c2cc(C)nn2CC)nc2cc(C(N)=O)cnc21 [compound 148]",
    "target.of.assay": "R232H human STING variant (Homo sapiens, UniProt Q86WV6)",
    "EC50": "< 30 nM"
  },
  {
    "compound": "CCc1nc(C)oc1C(=O)/N=c1\\sc2cc(C(N)=O)cc(OC)c2n1C/C=C/Cn1c(NC(=O)c2oc(C)nc2CC)nc2cc(C(N)=O)cc(OCCCO)c21 [compound 63]",
    "target.of.assay": "R232H human STING variant (Homo sapiens, UniProt Q86WV6)",
    "EC50": "< 30 nM"
  },
  {
    "compound": "CCc1nc(C)oc1C(=O)/N=c1\\sc2nc(C(N)=O)cnc2n1C/C=C/Cn1c(NC(=O)c2oc(C)nc2CC)nc2cc(C(N)=O)cc(OCCCO)c21 [compound 167]",
    "target.of.assay": "R232H human STING variant (Homo sapiens, UniProt Q86WV6)",
    "EC50": "30 to 100 nM"
  },
  {
    "compound": "CCc1nc(C)oc1C(=O)/N=c1\\sc2cc(C(N)=O)cnc2n1C/C=C/Cn1c(NC(=O)c2oc(C)nc2CC)nc2cc(C(N)=O)cc(OCCCO)c21 [compound 109]",
    "target.of.assay": "R232H human STING variant (Homo sapiens, UniProt Q86WV6)",
    "EC50": "< 30 nM"
  },
  {
    "compound": "CCc1nc(C)oc1C(=O)Nc1nc2cc(C(N)=O)cc(OCCCO)c2n1C/C=C/Cn1/c(=N/C(=O)c2cc(C)nn2CC)sc2cc(C(N)=O)cc(OC)c21 [compound 69]",
    "target.of.assay": "R232H human STING variant (Homo sapiens, UniProt Q86WV6)",
    "EC50": "< 30 nM"
  },
  {
    "compound": "CCc1nc(C)oc1C(=O)/N=c1\\sc2cc(C(N)=O)cc(OCCCO)c2n1C/C=C/Cn1c(NC(=O)c2oc(C)nc2CC)nc2cc(C(N)=O)cnc21 [compound 146]",
    "target.of.assay": "R232H human STING variant (Homo sapiens, UniProt Q86WV6)",
    "EC50": "< 30 nM"
  },
  {
    "compound": "CCc1nc(C)oc1C(=O)/N=c1\\sc2cc(C(N)=O)cc(OC)c2n1C/C=C/Cn1c(NC(=O)c2oc(C)nc2CC)nc2cc(C(N)=O)cc(OCCCC(=O)O)c21 [compound 66]",
    "target.of.assay": "R232H human STING variant (Homo sapiens, UniProt Q86WV6)",
    "EC50": "≥ 100 nM"
  },
  {
    "compound": "CCc1nc(C)oc1C(=O)Nc1nc2cc(C(N)=O)cnc2n1C/C=C/Cn1c(NC(=O)c2oc(C)nc2CC)nc2cc(C(N)=O)cc(OCCCO)c21 [compound 95]",
    "target.of.assay": "R232H human STING variant (Homo sapiens, UniProt Q86WV6)",
    "EC50": "< 30 nM"
  },
  {
    "compound": "CCc1nc(C)oc1C(=O)Nc1nc2cc(C(N)=O)cc(OC)c2n1C/C=C/Cn1c(NC(=O)c2oc(C)nc2CC)nc2cc(C(N)=O)cc(OCCCO)c21 [compound 9]",
    "target.of.assay": "R232H human STING variant (Homo sapiens, UniProt Q86WV6)",
    "EC50": "< 30 nM"
  }
]

Data provenance is patent US11155567B2.
